Source listed as ChEMBL document CHEMBL4138123.

- System: MDA-MB-435
- assay info: Cytotoxicity against human MDA-MB-435 cells assessed as cell growth at 1 uM after 48 hrs by sulforhodamine B assay relative to control
- Type: functional
- condition details: MDA-MB-435, 48 h, read-out: Activity
Param threshold (90%) applies to growth at 1 µM; output True when value >= threshold, False when value < threshold.

Q: Form field: growth at 1 µM at least 90%? Entry: COc1ccc(C(=O)/C=C/c2cc(-c3cc(OC)c(OC)c(OC)c3)n[nH]2)cc1OC
Ans: False

Q: Form field: growth at 1 µM at least 90%? Entry: COc1ccc(-c2cc(/C=C/C(=O)c3ccc(N)cc3)[nH]n2)cc1OC
Ans: True

Q: Form field: growth at 1 µM at least 90%? Entry: COc1cc(C(=O)/C=C/c2cc(-c3cc(OC)c(OC)c(OC)c3)n[nH]2)cc(OC)c1OC
Ans: False

* * *

- Test system: NCI-H460
- assay info: Cytotoxicity against human NCI-H460 cells assessed as cell growth at 0.1 uM after 48 hrs by sulforhodamine B assay relative to control
- Format: functional
- condition details: NCI-H460, 48 h, read-out: Activity
Could you please report measured growth at 0.1 µM for the items listed next?
State just the number; it will be interpreted in %.

The compound COc1ccc(C(=O)/C=C/c2cc(-c3ccc(OC)c(OC)c3)n[nH]2)cc1OC on NCI-H460: growth at 0.1 µM was 99

The compound COc1cc(-c2cc(/C=C/C(=O)c3ccc(F)c(F)c3)[nH]n2)cc(OC)c1OC on NCI-H460: growth at 0.1 µM was 102

The compound COc1ccc(C(=O)/C=C/c2cc(-c3ccc4c(c3)OCO4)n[nH]2)cc1OC on NCI-H460: growth at 0.1 µM was 102

The compound COc1cc(-c2cc(/C=C/C(=O)c3ccc(Cl)c(Cl)c3)[nH]n2)cc(OC)c1OC on NCI-H460: growth at 0.1 µM was 105

* * *

- Test system: ACHN
- assay info: Cytotoxicity against human ACHN cells assessed as cell growth at 10 uM after 48 hrs by sulforhodamine B assay relative to control
- Type: functional
- condition details: read-out: Activity
Param threshold (-40%) applies to growth at 10 µM; output t when value >= threshold, f when value < threshold.

Q: Form field: growth at 10 µM at least -40%? Entry: COc1cc(-c2cc(/C=C/C(=O)c3ccc(F)c(F)c3)[nH]n2)cc(OC)c1OC
Ans: t

Q: Form field: growth at 10 µM at least -40%? Entry: COc1ccc(C(=O)/C=C/c2cc(-c3ccc4c(c3)OCO4)n[nH]2)cc1OC
Ans: t

Q: Form field: growth at 10 µM at least -40%? Entry: COc1cc2c(cc1OC)C(=O)/C(=C/c1cc(-c3ccc4c(c3)OCO4)n[nH]1)C2
Ans: f

Q: Form field: growth at 10 µM at least -40%? Entry: COc1cc(C(=O)/C=C/c2cc(-c3ccc4c(c3)OCO4)n[nH]2)cc(OC)c1OC
Ans: f

Q: Form field: growth at 10 µM at least -40%? Entry: COc1cc(-c2cc(/C=C/C(=O)c3ccc(N)cc3)[nH]n2)cc(OC)c1OC
Ans: f

* * *

- Test system: MOLT-4
- assay info: Cytotoxicity against human MOLT4 cells assessed as cell growth at 0.01 uM after 48 hrs by sulforhodamine B assay relative to control
- Assay type: functional
- condition details: MOLT-4, 48 h, read-out: Activity
Could you please report measured growth at 0.01 µM for the items listed next?
State just the number; it will be interpreted in %.

The recorded growth at 0.01 µM for COc1cc(-c2cc(/C=C/C(=O)c3ccc(Cl)c(Cl)c3)[nH]n2)cc(OC)c1OC is 98

The recorded growth at 0.01 µM for COc1ccc(C(=O)/C=C/c2cc(-c3ccc(OC)c(OC)c3)n[nH]2)cc1OC is 103

The recorded growth at 0.01 µM for COc1ccc(-c2cc(/C=C/C(=O)c3ccc(N)cc3)[nH]n2)cc1 is 97
